TESTED TARGET: 3-hydroxyacyl-CoA dehydrogenase activity of multi-active enzyme (Pseudomonas fragi)
Construct: Crude enzyme was prepared from microbial cells of Pseudomonas fragi B-0771; endogenous in cells; host or cells: Pseudomonas fragi B-0771 FERM-P No. 5701 (enzyme extracted with lysozyme and purified from its own cells, not recombinant)
Sequence (P28793 whole entry): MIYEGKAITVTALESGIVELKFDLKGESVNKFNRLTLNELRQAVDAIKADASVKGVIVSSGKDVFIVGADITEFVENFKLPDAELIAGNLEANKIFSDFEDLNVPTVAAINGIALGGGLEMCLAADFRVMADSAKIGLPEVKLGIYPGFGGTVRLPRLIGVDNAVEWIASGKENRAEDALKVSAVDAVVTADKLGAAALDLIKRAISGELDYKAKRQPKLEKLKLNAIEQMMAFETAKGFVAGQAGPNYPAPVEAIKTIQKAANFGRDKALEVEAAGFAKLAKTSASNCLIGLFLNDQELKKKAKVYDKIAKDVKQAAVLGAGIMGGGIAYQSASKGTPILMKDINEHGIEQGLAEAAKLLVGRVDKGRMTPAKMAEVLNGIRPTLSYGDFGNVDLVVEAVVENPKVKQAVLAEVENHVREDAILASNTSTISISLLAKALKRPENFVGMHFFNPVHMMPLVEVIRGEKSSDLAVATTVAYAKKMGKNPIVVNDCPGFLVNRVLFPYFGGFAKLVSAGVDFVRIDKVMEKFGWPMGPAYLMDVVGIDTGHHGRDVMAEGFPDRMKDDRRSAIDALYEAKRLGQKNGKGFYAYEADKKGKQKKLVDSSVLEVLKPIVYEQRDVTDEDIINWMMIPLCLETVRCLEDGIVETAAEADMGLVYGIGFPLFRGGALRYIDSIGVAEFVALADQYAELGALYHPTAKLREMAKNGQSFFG
Sequence (P28790 whole entry partner): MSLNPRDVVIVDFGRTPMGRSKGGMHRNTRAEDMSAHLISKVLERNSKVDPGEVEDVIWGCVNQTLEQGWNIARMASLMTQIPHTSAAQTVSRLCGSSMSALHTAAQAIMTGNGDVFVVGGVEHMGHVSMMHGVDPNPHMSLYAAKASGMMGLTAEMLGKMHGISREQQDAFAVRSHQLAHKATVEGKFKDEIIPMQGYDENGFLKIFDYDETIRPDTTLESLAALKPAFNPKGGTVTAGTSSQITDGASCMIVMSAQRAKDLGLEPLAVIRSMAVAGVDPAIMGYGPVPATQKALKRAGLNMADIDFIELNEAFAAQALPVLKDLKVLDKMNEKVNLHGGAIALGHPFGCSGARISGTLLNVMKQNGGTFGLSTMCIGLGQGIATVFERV
EXPERIMENT: Substrate specificity of 3-hydroxyacyl-CoA dehydrogenase activity
Assay type: biochemical, Pseudomonas fragi B-0771
EXPERIMENTAL CONDITIONS: 3-hydroxyacyl-CoA used as substrate of 3-hydroxyacyl-CoA dehydrogenase activity
READOUT KIND: Relative activity (%)

Answered cases to consult:
CCCCCCCCCCCCCCCC(O)CC(=O)SCCNC(=O)CCNC(=O)[C@H](O)C(C)(C)COP(=O)(O)OP(=O)(O)OC[C@H]1O[C@@H](n2cnc3c(N)ncnc32)[C@H](O)[C@@H]1OP(=O)(O)O (stereo partly shown) [3-hydroxystearyl-CoA] ... 30.5
CC/C=C\C/C=C\C/C=C\CCCCCC(O)CC(=O)SCCNC(=O)CCNC(=O)[C@H](O)C(C)(C)COP(=O)(O)OP(=O)(O)OC[C@H]1O[C@@H](n2cnc3c(N)ncnc32)[C@H](O)[C@@H]1OP(=O)(O)O (stereo partly shown) [3-hydroxylinolenyl-CoA] ... 99.0

I. CCCC(O)CC(=O)SCCNC(=O)CCNC(=O)[C@H](O)C(C)(C)COP(=O)(O)OP(=O)(O)OC[C@H]1O[C@@H](n2cnc3c(N)ncnc32)[C@H](O)[C@@H]1OP(=O)(O)O (stereo partly shown) [3-hydroxycaproyl-CoA]
II. CCCCCCCCCC(O)CC(=O)SCCNC(=O)CCNC(=O)[C@H](O)C(C)(C)COP(=O)(O)OP(=O)(O)OC[C@H]1O[C@@H](n2cnc3c(N)ncnc32)[C@H](O)[C@@H]1OP(=O)(O)O (stereo partly shown) [3-hydroxylauryl-CoA]
# input # min-compare on Relative activity between I and II Please identify the chosen entry by its label.
# output I
(I: 56.5%, II: 100.0%)
